- System: SD rats
- condition_parameters: SD, rat, in vivo
metric_name: TI

Lookup: Bench note: what TI did `Brc1ccc2c(c1)C(c1ccccn1)=NN1CCN=C1N2` show?
Found: >1.3

Lookup: Bench note: what TI did `CC(C)Oc1nonc1CCN1N=C(c2ccccn2)c2cc(Br)ccc2N(C)C1=O` show?
Found: >2

Lookup: Bench note: what TI did `CON(C)C(=O)OCN1N=C(c2ccccn2)c2cc(Br)ccc2N(C)C1=O` show?
Found: >1.3

Lookup: Bench note: what TI did `CCOC(=O)CN1N=C(c2ccccn2)c2cc(Br)ccc2-n2c(C)cnc21` show?
Found: >1.7

Lookup: Bench note: what TI did `Cc1cnc2n1-c1ccc(Br)cc1C(c1ccccn1)=NN2COC(=O)C(C)C` show?
Found: >2

Lookup: Bench note: what TI did CC(OC(=O)CN1N=C(c2ccccn2)c2cc(Br)ccc2N(C)C1=O)C1CC1 (stereo not drawn) show?
Found: >1
